# Protocol description: in vivo
# Test context: po
Parameter: bioavailability

> print(dat)
                                smiles.data  reported.value
1  N[C@@H](CCC(=O)N[C@@H](CS)C(=O)NCC(=O)O)C(=O)O            ~90%
